Data origin: patent US20120165315A1

# test name: Thermal profile / melt event of the free base and its salts
# Assay type: physicochemical
# measurement conditions: solid form
assay endpoint: Good thermal profile with clean melt event

Examples with their reported Good thermal profile with clean melt event follow.
compound="CCC1(c2cccc(OC(=O)Nc3ccc(C(=O)O)cc3)c2)CCCCN(C)C1.CS(=O)(=O)O (stereo not shown)" result=yes
compound="CCC1(c2cccc(OC(=O)Nc3ccc(C(=O)O)cc3)c2)CCCCN(C)C1.O=C(O)/C=C\\C(=O)O (stereo not shown)" result=yes
compound="CCC1(c2cccc(OC(=O)Nc3ccc(C(=O)O)cc3)c2)CCCCN(C)C1.Cl (stereo not shown) [meptazinol p-amino-benzoylcarbamate•HCl]" result=no
compound="CCC1(c2cccc(OC(=O)Nc3ccc(C(=O)O)cc3)c2)CCCCN(C)C1.O=C(O)CC(=O)O (stereo not shown)" result=yes
compound="CCC1(c2cccc(OC(=O)Nc3ccc(C(=O)O)cc3)c2)CCCCN(C)C1.O=S(=O)(O)O (stereo not shown)" result=yes

Measured Good thermal profile with clean melt event, CCC1(c2cccc(OC(=O)Nc3ccc(C(=O)O)cc3)c2)CCCCN(C)C1.O=P(O)(O)O (stereo not shown) : no

Measured Good thermal profile with clean melt event, CCC1(c2cccc(OC(=O)Nc3ccc(C(=O)O)cc3)c2)CCCCN(C)C1 (stereo not shown) [meptazinol p-amino-benzoylcarbamate] : no
